assay: Cytotoxicity against human E6SM cells; format: cell-based; details: E6SM cells
readoutLabel: MCC (µg/mL)
Express the result in µg/mL but write the number alone.

# count of solved cases: 5
So what does the record say about MCC for C=CCNC(=S)Nc1ccc(-c2nnc(SCc3ccc(Cl)cc3Cl)n2C)cc1 ?
80

What value of MCC has been reported for the following compound? CCCCCCNC(=S)Nc1ccc(-c2n[nH]c(=S)n2CC)cc1
400

# lookup: MCC of Cn1c(-c2ccc(NC(=S)Nc3ccccc3)cc2)n[nH]c1=S
400

Consider the compound shown here: S=C(Nc1ccccc1)Nc1ccc(OCc2n[nH]c(=S)n2-c2ccccc2)cc1 What is its recorded MCC?
400

Quick one: MCC for C=CCNC(=S)Nc1ccc(-c2n[nH]c(=S)n2CC)cc1 ?
400

Below: the item to evaluate.
Look up MCC: C=CCn1c(COc2ccc(NC(=S)Nc3ccccc3)cc2)n[nH]c1=S
400

====

tested on: Coxsackievirus B4; assay: Antiviral activity against Coxsackie virus B4 in human HeLa cells assessed as inhibition of virus-induced cytopathogenicity; type: functional; conditions: Enterovirus B
readoutLabel: MIC

Would you please look over these solved cases?
Entry under review: C=CCNC(=S)Nc1ccc(-c2nnc(SCc3ccc(Cl)cc3Cl)n2-c2ccccc2)cc1 . Reported MIC?
> 16 µg/mL

Tell me the measured MIC of CNC(=S)Nc1ccc(OCc2n[nH]c(=S)n2-c2ccccc2)cc1 , please.
> 80 µg/mL

Looking for the measured MIC of CCCCCCNC(=S)Nc1ccc(-c2n[nH]c(=S)n2CC)cc1 , can you help?
> 400 µg/mL

Consider the compound shown here: CCn1c(COc2ccc(NC(=S)Nc3ccccc3)cc2)n[nH]c1=S What is its recorded MIC?
> 80 µg/mL

Given Cn1c(COc2ccc(N)cc2)n[nH]c1=S , state its recorded MIC.
> 400 µg/mL

Reported MIC for CNC(=S)Nc1ccc(OCc2n[nH]c(=S)n2C)cc1 : what is it?
> 400 µg/mL

Name the reported MIC value associated with the compound C=CCNC(=S)Nc1ccc(OCc2n[nH]c(=S)n2-c2ccccc2)cc1
> 80 µg/mL

Name the recorded MIC for C=CCn1c(COc2ccc(N)cc2)n[nH]c1=S .
> 400 µg/mL

Further cases:
Data request, read-out MIC, for C=CCn1c(COc2ccc(NC(=S)Nc3ccccc3)cc2)n[nH]c1=S
> 16 µg/mL

May I ask what MIC has been recorded for O=c1[nH]c(=O)n([C@H]2C[C@H](O)[C@@H](CO)O2)cc1/C=C/Br ?
> 400 µg/mL

MIC lookup needed for Cn1c(-c2ccc(NC(=S)Nc3ccccc3)cc2)n[nH]c1=S , thanks.
> 16 µg/mL

Name the recorded MIC for CNC(=S)Nc1ccc(-c2n[nH]c(=S)n2-c2ccccc2)cc1 .
> 400 µg/mL

Given the entry C=CCNC(=S)Nc1ccc(OCc2n[nH]c(=S)n2CC=C)cc1 , report its measured MIC.
> 80 µg/mL

Recorded MIC of CCNC(=S)Nc1ccc(OCc2n[nH]c(=S)n2CC)cc1 , please.
> 80 µg/mL

Suppose we examine the compound S=C(Nc1ccccc1)Nc1ccc(OCc2n[nH]c(=S)n2-c2ccccc2)cc1 ; what MIC value has been reported?
> 16 µg/mL

What value of measured MIC is listed for C=CCNC(=S)Nc1ccc(-c2n[nH]c(=S)n2CC)cc1 ?
> 80 µg/mL

// MIC lookup, key: C=CCNC(=S)Nc1ccc(-c2nnc(SCc3ccc(Cl)cc3Cl)n2C)cc1
> 80 µg/mL

What does the data say about its MIC? Entry: CCNC(=S)Nc1ccc(-c2n[nH]c(=S)n2C)cc1
> 80 µg/mL

Could you tell me which MIC is on file for CNC(=S)Nc1ccc(-c2nnc(SCc3ccccc3)n2C)cc1 ?
> 16 µg/mL

Given the entry C=CCn1c(COc2ccc(NC(=S)NCC)cc2)n[nH]c1=S , report its measured MIC.
> 80 µg/mL

Given the compound CNC(=S)Nc1ccc(-c2n[nH]c(=S)n2C)cc1 , what is its reported MIC?
> 80 µg/mL

# MIC lookup, item C=CCn1c(-c2ccc(NC(=S)NC)cc2)n[nH]c1=S
> 80 µg/mL

What value of MIC has been reported for the following compound? CCn1c(COc2ccc(N)cc2)n[nH]c1=S
> 400 µg/mL

Look up MIC for this compound: C=CCn1c(COc2ccc(NC(=S)NC)cc2)n[nH]c1=S
> 80 µg/mL
